Data origin: the MegaScale stability set (Tsuboyama et al. 2023)

B1: EHEE_rd4_0726 (parent)
chain: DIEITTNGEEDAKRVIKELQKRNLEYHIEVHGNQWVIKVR

Variants of: B1
Assay: folding stability dG (cDNA display proteolysis); higher = more stable
Conditions: PBS, room temperature
Binary call on folding stability dG: TRUE from 2 kcal/mol upward, FALSE beneath that.

Please review the entries below; each comes with its answer.
   mutant_name  discrete_label
0         N23C           FALSE
1         K13R            TRUE
2         K13N            TRUE
3         K13A            TRUE
4         Q34A           FALSE
5         E10Y            TRUE
6         E10P           FALSE
7         V39K           FALSE
8         N23I           FALSE
9          T6I            TRUE

Problem: Hi, just wondering whether N33I shows folding stability dG of 2 kcal/mol or higher.
Result: FALSE

Problem: Hi, just wondering whether Q34Y shows folding stability dG of 2 kcal/mol or higher.
Result: TRUE

Problem: Hi, just wondering whether N7Y shows folding stability dG of 2 kcal/mol or higher.
Result: TRUE

Problem: Hi, just wondering whether V30S shows folding stability dG of 2 kcal/mol or higher.
Result: FALSE

Problem: Hi, just wondering whether R22L shows folding stability dG of 2 kcal/mol or higher.
Result: TRUE

Problem: Hi, just wondering whether G32M shows folding stability dG of 2 kcal/mol or higher.
Result: FALSE

Problem: Hi, just wondering whether N23G shows folding stability dG of 2 kcal/mol or higher.
Result: TRUE

Problem: Hi, just wondering whether N33D shows folding stability dG of 2 kcal/mol or higher.
Result: TRUE

Problem: Hi, just wondering whether E18M shows folding stability dG of 2 kcal/mol or higher.
Result: TRUE

Problem: Hi, just wondering whether E9W shows folding stability dG of 2 kcal/mol or higher.
Result: TRUE

Problem: Hi, just wondering whether I37V shows folding stability dG of 2 kcal/mol or higher.
Result: FALSE

Problem: Hi, just wondering whether Q20P shows folding stability dG of 2 kcal/mol or higher.
Result: FALSE

Problem: Hi, just wondering whether Y26A shows folding stability dG of 2 kcal/mol or higher.
Result: FALSE

Problem: Hi, just wondering whether G32Y shows folding stability dG of 2 kcal/mol or higher.
Result: FALSE

Problem: Hi, just wondering whether I28H shows folding stability dG of 2 kcal/mol or higher.
Result: FALSE

Problem: Hi, just wondering whether K17F shows folding stability dG of 2 kcal/mol or higher.
Result: TRUE

Problem: Hi, just wondering whether N7V shows folding stability dG of 2 kcal/mol or higher.
Result: TRUE

Problem: Hi, just wondering whether E10A shows folding stability dG of 2 kcal/mol or higher.
Result: TRUE

Problem: Hi, just wondering whether R40F shows folding stability dG of 2 kcal/mol or higher.
Result: TRUE
